All values here come from patent US8003658B2.

Each item that follows carries a reported IC50.
Test system: SK-Br3 (ATCC: HTB-30)
experiment.notes: Test of cancer cell growth inhibition (SRB), SK-Br3
test.conditions: read-out: IC50 SK-Br-3; Erb-B2 overexpressed SK-Br3, 72 hours, SRB
value.kind: IC50

smiles.record: CC#CC(=O)N1CCC[C@H]1C(=O)Nc1cc2c(Nc3ccc(OCc4ccccn4)c(Cl)c3)ncnc2cc1OC
measurement: 0.04 µM

smiles.record: CSCC(=O)NCCCC(=O)Nc1ccc2ncnc(Nc3ccc(OCc4cccc(F)c4)c(Cl)c3)c2c1
measurement: 0.044 µM

smiles.record: COc1cc2ncnc(Nc3ccc(OCc4ccccn4)c(Cl)c3)c2cc1NC(=O)[C@@H]1CCCN1C(=O)C=CCN(C)C
measurement: 0.026 µM

smiles.record: O=C(C=CCN1CCOCC1)NCCC(=O)Nc1ccc2ncnc(Nc3ccc(OCc4cccc(F)c4)c(Cl)c3)c2c1
measurement: 0.043 µM

smiles.record: C=CC(=O)N[C@@H](CCSC)C(=O)Nc1ccc2ncnc(Nc3ccc(OCc4cccc(F)c4)c(Cl)c3)c2c1
measurement: 0.007 µM

smiles.record: CC=CC(=O)NCCC(=O)Nc1ccc2ncnc(Nc3ccc(OCc4cccc(F)c4)c(Cl)c3)c2c1
measurement: 0.065 µM

smiles.record: O=C(CCc1ccccc1)NCCC(=O)Nc1ccc2ncnc(Nc3ccc(OCc4cccc(F)c4)c(Cl)c3)c2c1
measurement: 0.359 µM

smiles.record: CSCC(=O)NCCC(=O)Nc1ccc2ncnc(Nc3ccc(OCc4cccc(F)c4)c(Cl)c3)c2c1
measurement: 0.04 µM

smiles.record: CC#CC(=O)NCCC(=O)Nc1ccc2ncnc(Nc3ccc(OCc4cccc(F)c4)c(Cl)c3)c2c1
measurement: 0.01 µM

smiles.record: O=C(CCl)NCCC(=O)Nc1ccc2ncnc(Nc3ccc(OCc4cccc(F)c4)c(Cl)c3)c2c1
measurement: 0.098 µM

smiles.record: CC(C)(C)OC(=O)NCCC(=O)Nc1ccc2ncnc(Nc3ccc4c(cnn4Cc4ccccc4)c3)c2c1
measurement: 0.086 µM

smiles.record: CC(C)=CC(=O)NCCC(=O)Nc1ccc2ncnc(Nc3ccc(OCc4cccc(F)c4)c(Cl)c3)c2c1
measurement: 0.054 µM

smiles.record: C=CC(=O)N1CCC[C@H]1C(=O)Nc1cc2c(Nc3ccc(OCc4ccccn4)c(Cl)c3)ncnc2cc1OC
measurement: 0.003 µM

smiles.record: CC=CC=CC(=O)NCCC(=O)Nc1ccc2ncnc(Nc3ccc(OCc4cccc(F)c4)c(Cl)c3)c2c1
measurement: 0.105 µM

smiles.record: CN(C)CC=CC(=O)NCCC(=O)Nc1ccc2ncnc(Nc3ccc(OCc4cccc(F)c4)c(Cl)c3)c2c1
measurement: 0.051 µM
